Experiment: activity coefficient (dimensionless); of the first substance listed, at infinite dilution; xn = mol fraction of the nth substance listed
Conditions: 323.15 K; 101 kPa; Liquid; Chromatography; x1 = 0
Result Type: activity coefficient

# example entries with known answers
# Compound, activity coefficient
records = [
    ("CCCCCCCC [octane] + C=CC[n+]1ccn(CCCCCCCCCCCC)c1.[Br-]", 6.37),
    ("CCCCCC [hexane] + C=CC[n+]1ccn(CCCCCCCCCCCC)c1.[Br-]", 4.41),
    ("CO [methanol] + C=CC[n+]1ccn(CCCCCCCC)c1.[Br-]", 0.17),
]

(I) CCCCCCCCC [nonane] + C[n+]1ccn(CCCB(O)O)c1.[Br-]
(II) c1ccccc1 [benzene] + CCCCCCCC[n+]1ccn(CCCB(O)O)c1.[Br-]
-- ask Hi team, can someone confirm which has the larger activity coefficient: I or II ? Thanks. Write the label of whichever entry you select.
-- reply I
(I: 83.2, II: 1.84)

====

Assay: activity coefficient (dimensionless); of the first substance listed, at infinite dilution; xn = mol fraction of the nth substance listed
Settings: 323.15 K; 101 kPa; Liquid; Chromatography; x1 = 0
Result Type: activity coefficient

# example entries with known answers
# Compound, activity coefficient
measured = [
    ("CCC(C)=O [butanone] + C=CC[n+]1ccn(CCCCCCCCCC)c1.[Br-]", 1.48),
    ("CCCC(C)=O [pentan-2-one] + C=CC[n+]1ccn(CCCCCCCC)c1.[Br-]", 1.93),
    ("ClCCl [dichloromethane] + C[n+]1ccn(CCCB(O)O)c1.[Br-]", 3.2),
    ("CCCO [propan-1-ol] + C=CCn1cc[n+](C)c1.[Br-]", 0.54),
    ("c1ccccc1 [benzene] + C=CC[n+]1ccn(CCCCCCCC)c1.[Br-]", 1.4),
]

(a) CCCC(C)=O [pentan-2-one] + CCCCCCCCCC[n+]1ccn(CCCB(O)O)c1.[Br-]
(b) CC(C)O [propan-2-ol] + C=CCn1cc[n+](C)c1.[Br-]
(c) CCc1ccccc1 [ethylbenzene] + CCCCCCCC[n+]1ccn(CCCB(O)O)c1.[Br-]
-- ask Please list these in order of increasing activity coefficient. Thank you! To answer, write out the labels according to the requested order.
-- reply b, a, c
(b: 0.69, a: 1.67, c: 3.28)

====

Assay: activity coefficient (dimensionless); of the first substance listed, at infinite dilution; xn = mol fraction of the nth substance listed
Details: 323.15 K; 101 kPa; Liquid; Chromatography; x1 = 0
Result Type: activity coefficient

# example entries with known answers
# Molecule, activity coefficient
records = [
    ("c1ccccc1 [benzene] + CCCCCCCCCCCC[n+]1ccn(CCCB(O)O)c1.[Br-]", 1.21),
    ("Cc1ccccc1 [toluene] + CCCCCCCC[n+]1ccn(CCCB(O)O)c1.[Br-]", 2.41),
    ("CCCCCC [hexane] + CCCCCCCCCC[n+]1ccn(CCCB(O)O)c1.[Br-]", 5.45),
    ("C1COCCO1 [1,4-dioxane] + CCCCCCCCCCCC[n+]1ccn(CCCB(O)O)c1.[Br-]", 1.32),
    ("C#CCCCCC [1-heptyne] + C=CC[n+]1ccn(CCCCCCCCCCCC)c1.[Br-]", 1.87),
    ("Cc1ccccc1 [toluene] + C=CC[n+]1ccn(CCCCCCCC)c1.[Br-]", 1.92),
]

(a) CCCC(C)=O [pentan-2-one] + C=CC[n+]1ccn(CCCCCCCCCC)c1.[Br-]
(b) CCc1ccccc1 [ethylbenzene] + C=CCn1cc[n+](C)c1.[Br-]
(c) CCCO [propan-1-ol] + C=CC[n+]1ccn(CCCCCCCCCCCC)c1.[Br-]
-- ask Please list these in order of increasing activity coefficient. Thank you! To answer, write out the labels according to the requested order.
-- reply c, a, b

====

Test: activity coefficient (dimensionless); of the first substance listed, at infinite dilution; xn = mol fraction of the nth substance listed
Settings: 323.15 K; 101 kPa; Liquid; Chromatography; x1 = 0
Result Type: activity coefficient

# example entries with known answers
# Compound, Result Type, Recorded Measurement
data = [
    ("CCCCCC [hexane] + C=CC[n+]1ccn(CCCCCCCC)c1.[Br-]", "activity coefficient", 8.9),
    ("C#CCCCCC [1-heptyne] + CCCCCCCC[n+]1ccn(CCCB(O)O)c1.[Br-]", "activity coefficient", 3.7),
    ("ClC(Cl)(Cl)Cl [tetrachloromethane] + CCCCCCCC[n+]1ccn(CCCB(O)O)c1.[Br-]", "activity coefficient", 1.23),
    ("C#CCCCCC [1-heptyne] + C[n+]1ccn(CCCB(O)O)c1.[Br-]", "activity coefficient", 42.9),
]

(I) ClC(Cl)Cl [trichloromethane] + CCCCCCCCCC[n+]1ccn(CCCB(O)O)c1.[Br-]
(II) CCCCCCC [heptane] + CCCCCCCCCCCC[n+]1ccn(CCCB(O)O)c1.[Br-]
-- ask Hi team, can someone confirm which has the larger activity coefficient: I or II ? Thanks. Write the label of whichever entry you select.
-- reply II
(II: 5.36, I: 0.12)

(a) CC(C)CO [2-methyl-1-propanol] + C=CC[n+]1ccn(CCCCCCCCCC)c1.[Br-]
(b) CCCCCCCCC [nonane] + C=CC[n+]1ccn(CCCCCCCCCC)c1.[Br-]
(c) c1ccsc1 [thiophene] + C=CCn1cc[n+](C)c1.[Br-]
(d) ClC(Cl)Cl [trichloromethane] + CCCCCCCCCCCC[n+]1ccn(CCCB(O)O)c1.[Br-]
(e) c1ccsc1 [thiophene] + CCCCCCCCCC[n+]1ccn(CCCB(O)O)c1.[Br-]
-- ask Order field: activity coefficient | Direction: descending (largest first) To answer, write out the labels according to the requested order.
-- reply b, c, e, a, d

(P) c1ccccc1 [benzene] + CCCCCCCCCC[n+]1ccn(CCCB(O)O)c1.[Br-]
(Q) C#CCCCCC [1-heptyne] + CCCCCCCCCCCC[n+]1ccn(CCCB(O)O)c1.[Br-]
(R) CCc1ccccc1 [ethylbenzene] + CCCCCCCCCCCC[n+]1ccn(CCCB(O)O)c1.[Br-]
(S) c1ccccc1 [benzene] + C[n+]1ccn(CCCB(O)O)c1.[Br-]
-- ask Order field: activity coefficient | Direction: descending (largest first) To answer, write out the labels according to the requested order.
-- reply S, R, Q, P
(S: 18.1, R: 3.83, Q: 2.2, P: 1.33)

(a) CC#N [acetonitrile] + CCCCCCCCCCCC[n+]1ccn(CCCB(O)O)c1.[Br-]
(b) CCCC(C)=O [pentan-2-one] + CCCCCCCC[n+]1ccn(CCCB(O)O)c1.[Br-]
(c) C1CCCCC1 [cyclohexane] + C=CC[n+]1ccn(CCCCCCCC)c1.[Br-]
(d) CCO [ethanol] + C=CC[n+]1ccn(CCCCCCCCCCCC)c1.[Br-]
-- ask Order field: activity coefficient | Direction: descending (largest first) To answer, write out the labels according to the requested order.
-- reply c, b, a, d
(c: 5.66, b: 2.32, a: 1.16, d: 0.23)

(I) C1COCCO1 [1,4-dioxane] + C=CC[n+]1ccn(CCCCCCCCCCCC)c1.[Br-]
(II) CCc1ccccc1 [ethylbenzene] + CCCCCCCCCC[n+]1ccn(CCCB(O)O)c1.[Br-]
(III) CC(C)CO [2-methyl-1-propanol] + C=CC[n+]1ccn(CCCCCCCC)c1.[Br-]
-- ask Please list these in order of increasing activity coefficient. Thank you! To answer, write out the labels according to the requested order.
-- reply III, I, II
(III: 0.29, I: 1.3, II: 2.37)

(a) C1COCCO1 [1,4-dioxane] + CCCCCCCCCC[n+]1ccn(CCCB(O)O)c1.[Br-]
(b) c1ccsc1 [thiophene] + C=CC[n+]1ccn(CCCCCCCC)c1.[Br-]
(c) CCO [ethanol] + C=CC[n+]1ccn(CCCCCCCCCC)c1.[Br-]
-- ask Please list these in order of increasing activity coefficient. Thank you! To answer, write out the labels according to the requested order.
-- reply c, b, a

(a) C#CCCCCC [1-heptyne] + C=CCn1cc[n+](C)c1.[Br-]
(b) C=CCCCC [hex-1-ene] + C=CC[n+]1ccn(CCCCCCCCCCCC)c1.[Br-]
-- ask Could you determine which record has the numerically smaller activity coefficient? Candidates: a and b Write the label of whichever entry you select.
-- reply b

====

Assay: activity coefficient (dimensionless); of the first substance listed, at infinite dilution; xn = mol fraction of the nth substance listed
Conditions: 323.15 K; 101 kPa; Liquid; Chromatography; x1 = 0
Result Type: activity coefficient

# example entries with known answers
# Molecule, activity coefficient
data = [
    ("CC(C)O [propan-2-ol] + C=CC[n+]1ccn(CCCCCCCC)c1.[Br-]", 0.36),
    ("ClC(Cl)Cl [trichloromethane] + C=CC[n+]1ccn(CCCCCCCCCC)c1.[Br-]", 0.13),
    ("CCCCCC [hexane] + C=CC[n+]1ccn(CCCCCCCCCC)c1.[Br-]", 8.39),
]

(a) c1ccsc1 [thiophene] + C=CC[n+]1ccn(CCCCCCCCCC)c1.[Br-]
(b) CCCCCCC [heptane] + C[n+]1ccn(CCCB(O)O)c1.[Br-]
(c) CCCC(C)=O [pentan-2-one] + C=CC[n+]1ccn(CCCCCCCCCCCC)c1.[Br-]
(d) CCc1ccccc1 [ethylbenzene] + C[n+]1ccn(CCCB(O)O)c1.[Br-]
(e) C=CCCCC [hex-1-ene] + C=CCn1cc[n+](C)c1.[Br-]
-- ask Order field: activity coefficient | Direction: descending (largest first) To answer, write out the labels according to the requested order.
-- reply b, d, e, c, a

(1) CC#N [acetonitrile] + C=CC[n+]1ccn(CCCCCCCCCC)c1.[Br-]
(2) C1COCCO1 [1,4-dioxane] + C=CC[n+]1ccn(CCCCCCCCCC)c1.[Br-]
-- ask Could you determine which record has the numerically smaller activity coefficient? Candidates: 1 and 2 Write the label of whichever entry you select.
-- reply 1
